Each record here notes measured pKd.
- target.or.system: T1, human IL-2Rβ (human, UniProt P14784 27-240, limits assumed)
- T1 construct: also called hIL-2Rβ; IL-2 receptor beta
- T1 sequence (looked up): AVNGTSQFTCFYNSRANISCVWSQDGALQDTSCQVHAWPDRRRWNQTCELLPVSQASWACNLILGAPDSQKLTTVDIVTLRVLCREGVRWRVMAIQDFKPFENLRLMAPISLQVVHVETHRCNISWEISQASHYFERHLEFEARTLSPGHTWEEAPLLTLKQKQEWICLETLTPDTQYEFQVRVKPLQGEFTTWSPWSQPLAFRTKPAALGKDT
- measurement.description: SPR, steady state
pKd: −log10 of the molar value.

hIL-15 V49R/K11L (ligand) NWVNVISDLKLIEDLIQSMHIDATLYTESDVHPSCKVTAMKCFLLELQRISLESGDASIHDTVENLIILANNSLSSNGNVTESGCKECEELEEKNIKEFLQSFVHIVQMFINTGGGGSGHHHHHHHHGGGLNDIFEAQKIEWHE
7.04
hIL-15 V49R/I68T (ligand) NWVNVISDLKKIEDLIQSMHIDATLYTESDVHPSCKVTAMKCFLLELQRISLESGDASIHDTVENLITLANNSLSSNGNVTESGCKECEELEEKNIKEFLQSFVHIVQMFINTGGGGSGHHHHHHHHGGGLNDIFEAQKIEWHE
< 6.30
hIL-15 V49R/V31K (ligand) NWVNVISDLKKIEDLIQSMHIDATLYTESDKHPSCKVTAMKCFLLELQRISLESGDASIHDTVENLIILANNSLSSNGNVTESGCKECEELEEKNIKEFLQSFVHIVQMFINTGGGGSGHHHHHHHHGGGLNDIFEAQKIEWHE
< 6.30

Enquiry: Recorded pKd for hIL-15 V49R/S7R (ligand) NWVNVIRDLKKIEDLIQSMHIDATLYTESDVHPSCKVTAMKCFLLELQRISLESGDASIHDTVENLIILANNSLSSNGNVTESGCKECEELEEKNIKEFLQSFVHIVQMFINTGGGGSGHHHHHHHHGGGLNDIFEAQKIEWHE , please?
Return: < 6.30

Enquiry: I'd like to know its pKd. The binder in question is hIL-15 V49R/L69E (ligand) NWVNVISDLKKIEDLIQSMHIDATLYTESDVHPSCKVTAMKCFLLELQRISLESGDASIHDTVENLIIEANNSLSSNGNVTESGCKECEELEEKNIKEFLQSFVHIVQMFINTGGGGSGHHHHHHHHGGGLNDIFEAQKIEWHE
Return: < 6.00

Enquiry: Which value of pKd has been reported for hIL-15 V49R/E64H (ligand) NWVNVISDLKKIEDLIQSMHIDATLYTESDVHPSCKVTAMKCFLLELQRISLESGDASIHDTVHNLIILANNSLSSNGNVTESGCKECEELEEKNIKEFLQSFVHIVQMFINTGGGGSGHHHHHHHHGGGLNDIFEAQKIEWHE in the records?
Return: < 6.00

Enquiry: Which pKd value is on record for hIL-15 V49R/N1S (ligand) SWVNVISDLKKIEDLIQSMHIDATLYTESDVHPSCKVTAMKCFLLELQRISLESGDASIHDTVENLIILANNSLSSNGNVTESGCKECEELEEKNIKEFLQSFVHIVQMFINTGGGGSGHHHHHHHHGGGLNDIFEAQKIEWHE ?
Return: 6.71

Enquiry: I have this binder here, hIL-15 V49R/M109D (ligand) NWVNVISDLKKIEDLIQSMHIDATLYTESDVHPSCKVTAMKCFLLELQRISLESGDASIHDTVENLIILANNSLSSNGNVTESGCKECEELEEKNIKEFLQSFVHIVQDFINTGGGGSGHHHHHHHHGGGLNDIFEAQKIEWHE , and I need its recorded pKd.
Return: 6.47
